Measured Ki (human EP2 receptor (Homo sapiens, UniProt P43116))

Look up Ki: O=C(O)c1ccc(CNC(=O)c2cc(-c3ccncc3)ccc2Oc2ccc(F)cc2)cc1 [Example 1] ≥ 10000 nM

Try the molecule O=C(O)c1ccc(CNC(=O)c2cc(-c3ccccc3F)ccc2Oc2ccc(F)cc2)cc1 [Example 6] 1000 to 10000 nM

Try the molecule O=C(O)c1ccc(CNC(=O)c2cc(-c3ccc(F)cc3)ccc2Oc2ccc(F)cc2)cc1 [Example 4] < 100 nM

Try the molecule O=C(O)c1ccc(CNC(=O)c2cc(-c3cccc(C(F)(F)F)c3)ccc2Oc2ccc(F)cc2)c(F)c1 [Example 28] 1000 to 10000 nM

Try the molecule N#Cc1cccc(-c2ccc(Oc3ccc(F)cc3)c(C(=O)NCc3ccc(C(=O)O)cc3)c2)c1 [Example 8] < 100 nM

Try the molecule O=C(O)c1ccc(CNC(=O)c2cc(-c3cccc(F)c3)ccc2Oc2ccc(F)cc2)cc1 [Example 5] < 100 nM

Try the molecule O=C(O)c1ccc(CNC(=O)c2cc(-c3cccnc3)ccc2Oc2ccc(F)cc2)cc1 [Example 10] 1000 to 10000 nM

Try the molecule O=C(O)c1ccc(CNC(=O)c2cc(-c3cccc(-c4ccncc4)c3)ccc2Oc2ccc(F)cc2)cc1 [Example 26] ≥ 10000 nM

Try the molecule O=C(O)c1ccc(CNC(=O)c2cc(-c3cc(F)cc(F)c3)ccc2Oc2ccc(F)cc2)cc1 [Example 19] < 100 nM
